Each recorded value in this set is attributed to patent US20260250318A1.

Test system: brain
procedure summary: NGS fold enrichment of synthetic library (passage 3) in BALB/c mice, first cross-species screen
Format: in vivo
condition info: synthetic library passage 3, intravenous, RNA NGS, brain of BALB/c mice, relative to wild-type AAV9
Assign YES whenever Fold enrichment over AAV9 in the brain of Mice (BALB/c) does not fall below 0.4 fold; assign NO whenever it does.

biosequence	experimental system	group
GSGASRMSIQNQQT	brain	YES
GSGQSHRDVLNQQT	brain	NO
GGITWTDSGQNQQT	brain	YES
GSGQNQQTLYSSNT	brain	NO
GGGDLGRSSQNQQT	brain	YES

Query: Evaluate GSGQNQQSNWITKT : Fold enrichment over AAV9 in the brain of Mice (BALB/c) at minimum 0.4 fold?
Result: YES

Query: Would you say GRGAVMASGQNQQT shows Fold enrichment over AAV9 in the brain of Mice (BALB/c) at minimum 0.4 fold?
Result: YES

Query: Reported Fold enrichment over AAV9 in the brain of Mice (BALB/c) at or above 0.4 fold? GSGDTLHMLQNQQT
Result: YES
